Measured inhibition, listed per entry.
target: Estrogen receptor beta (Homo sapiens); test: inhibitors of ERβ-SRC1 coactivator interaction, primary screen, biochemical, TR-FRET, ERβ LBD, SRC-1 peptide (AID 633); settings: TR-FRET ER-beta LBD / SRC1-Cy5 peptide binding; at 25.6 µM; active compounds read high; receptor agonist-loaded with 1 µM estradiol;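 note: 0% = receptor plus peptide wells without compound and 100% = peptide-only wells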
Screen size: about 86,000 compounds; about 1,100 (1.3%) were called active. Many of the other results were omitted from the sample, so actives are more common in it than they were.
Report only the number, with the unit % understood.

>  <molecule>
CC(CO)N1CCS(=O)(=O)CC1 (stereo not drawn)

>  <targetOfAssay>
Estrogen receptor beta (Homo sapiens)

>  <readoutNumber>
-15

$$$$
>  <molecule>
ON=C1/C(=N\O)CC2(C/C1=N/O)OCCO2

>  <targetOfAssay>
Estrogen receptor beta (Homo sapiens)

>  <readoutNumber>
60.3

$$$$
>  <molecule>
CCCCCCc1cc2cc(-c3nnc(-c4cccc(OC)c4)o3)c(=O)oc2cc1O

>  <targetOfAssay>
Estrogen receptor beta (Homo sapiens)

>  <readoutNumber>
1.17

$$$$

Look up and state reported inhibition for Cc1cc(C)c(OCC(=O)N/N=C/c2ccco2)c(C)c1
-10.7

Look up and state reported inhibition for O/N=C1\CC2(Cc3nonc31)OCCO2
23

Look up and state reported inhibition for Cn1ccs/c1=N\S(=O)(=O)c1ccc(C(C)(C)C)cc1
0.33

Look up and state reported inhibition for Cc1ccc(-n2c(SCC(=O)NCc3ccc4c(c3)OCO4)nnc2-c2cccnc2)c(C)c1
-8.68

Look up and state reported inhibition for O=C(NCC(=O)N(Cc1cccs1)C(C(=O)NC1CCCCC1)c1ccco1)c1cccs1 (stereo not drawn)
6.36

Look up and state reported inhibition for CCOc1cc(NC(=O)c2ccco2)c(OCC)cc1NC(=O)COc1ccccc1
48.5

Look up and state reported inhibition for COc1cccc(-c2nn(C)c3sc(C(=O)N4CCN(c5ccccc5)CC4)cc23)c1
10.8

Look up and state reported inhibition for CCOc1cccc(NC(=O)Cn2nc(-c3ccc4c(c3)OCCO4)ccc2=O)c1
0.68

Look up and state reported inhibition for O=C(NCCCCCCNC(=O)NCc1ccco1)NCc1ccco1
-27.9

Look up and state reported inhibition for COc1ccc(CC(=O)Nc2ccc(-c3nnc(-c4ccc(C)cc4)o3)cc2)cc1
15.6

---

Measured inhibition, listed per entry.
target: Estrogen receptor beta (Homo sapiens); experiment: inhibitors of ERβ-SRC1 coactivator interaction, primary screen, biochemical, TR-FRET, ERβ LBD, SRC-1 peptide (AID 633); conditions: TR-FRET ER-beta LBD / SRC1-Cy5 peptide binding; at 25.6 µM; active compounds read high; receptor agonist-loaded with 1 µM estradiol;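 note: 0% = receptor plus peptide wells without compound and 100% = peptide-only wells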
Screen size: about 86,000 compounds; about 1,100 (1.3%) were called active. For the sample, actives were picked, then their nearest neighbours and some compounds at random.
Report only the number, with the unit % understood.

Examples with their reported inhibition follow.
>  <compound>
CCOC(=O)c1sc(NC(=O)c2ccncc2)nc1C

>  <unitLabel>
%

>  <readoutNumber>
-4.81

$$$$
>  <compound>
CCC(=O)NC(Nc1nc2ccc(C)cc2s1)(C(=O)OC)C(F)(F)F (centres undefined)

>  <unitLabel>
%

>  <readoutNumber>
9.59

$$$$
>  <compound>
O=C(COC(=O)C12CC3CC(CC(C3)C1)C2)NCc1ccco1

>  <unitLabel>
%

>  <readoutNumber>
13.8

$$$$

Please indicate recorded inhibition of CCCCc1nnc(NC(=O)CSc2nc(C)cc(=O)[nH]2)s1 measured with Estrogen receptor beta (Homo sapiens).
27.8

---

target: Estrogen receptor beta (Homo sapiens) (UniProt Q92731); assay: inhibitors of ERβ-SRC1 coactivator interaction, primary screen, biochemical, TR-FRET, ERβ LBD, SRC-1 peptide (AID 633); conditions: TR-FRET ER-beta LBD / SRC1-Cy5 peptide binding; at 25.6 µM; receptor agonist-loaded with 1 µM estradiol;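 note: 0% = receptor plus peptide wells without compound and 100% = peptide-only wells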
Sequence (Q92731 whole entry, looked up, the tested form may be a part): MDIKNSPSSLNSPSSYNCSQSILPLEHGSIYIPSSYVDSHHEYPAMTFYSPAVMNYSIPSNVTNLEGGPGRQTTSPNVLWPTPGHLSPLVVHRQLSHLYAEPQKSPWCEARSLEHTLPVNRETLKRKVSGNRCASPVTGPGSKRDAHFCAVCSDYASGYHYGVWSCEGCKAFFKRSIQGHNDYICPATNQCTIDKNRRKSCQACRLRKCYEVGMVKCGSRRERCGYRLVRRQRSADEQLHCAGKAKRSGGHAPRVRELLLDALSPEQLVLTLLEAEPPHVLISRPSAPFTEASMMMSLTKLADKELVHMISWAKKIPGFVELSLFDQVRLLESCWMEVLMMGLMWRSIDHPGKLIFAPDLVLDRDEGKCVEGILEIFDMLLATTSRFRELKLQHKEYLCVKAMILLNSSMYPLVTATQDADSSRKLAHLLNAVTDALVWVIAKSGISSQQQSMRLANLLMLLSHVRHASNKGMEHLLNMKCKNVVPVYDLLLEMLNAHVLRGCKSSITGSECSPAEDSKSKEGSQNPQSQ
Screen size: about 86,000 compounds; about 1,100 (1.3%) were called active.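 The calls were made as follows: active = compounds whose percent inhibition of the receptor-coactivator binding signal exceeds about 50% in the single-dose screen (limit read from the data); inactive = the rest.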 Shown is part of a subset that was picked to be rich in actives.
In this exercise, the only acceptable responses are true = active, false = inactive

A selection of reference data follows.
>  <compound>
CS(=O)(=O)N(CC(=O)Nc1ccc(Cl)c(Cl)c1)C1CCCCC1

>  <assignedLabel>
false

$$$$
>  <compound>
Cc1coc2c(O)cc3c(c12)OC1(N2CCCCC2)C(=O)NCCCC31 (stereo not given)

>  <assignedLabel>
true

$$$$
>  <compound>
CCOc1cc2[nH]c(=S)n(CCN3CCCCC3C)c(=O)c2cc1OCC (stereo not given)

>  <assignedLabel>
false

$$$$

Hi, do you know how O=C(Cn1c(-c2cscn2)nc2ccccc21)Nc1ccc(Cl)cc1 came out in this test?
false

Hi, do you know how CCOC(=O)c1[nH]c2ccc(OC)cc2c1NC(=O)CCN1CCN(Cc2ccccc2)CC1 came out in this test?
false

Hi, do you know how COc1ccc(Cc2nnc(NC(=O)Cc3cccs3)s2)cc1 came out in this test?
true

Hi, do you know how CC(c1ccco1)N(C(=O)Nc1ccccc1)C1CCCCC1 (stereo not given) came out in this test?
false

Hi, do you know how O=C(N/N=C/C=C/c1ccccc1)C1CC1(c1ccccc1)c1ccccc1 (stereo not given) came out in this test?
false

---

molecular target: Estrogen receptor beta (Homo sapiens) (UniProt Q92731); experiment: inhibitors of ERβ-SRC1 coactivator interaction, primary screen, biochemical, TR-FRET, ERβ LBD, SRC-1 peptide (AID 633); conditions: TR-FRET ER-beta LBD / SRC1-Cy5 peptide binding; at 25.6 µM; receptor agonist-loaded with 1 µM estradiol;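 note: 0% = receptor plus peptide wells without compound and 100% = peptide-only wells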
The campaign covered roughly 86,000 compounds. About 1,100 (1.3%) were called active.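 How the source made its calls: active means compounds whose percent inhibition of the receptor-coactivator binding signal exceeds about 50% in the single-dose screen (limit read from the data); inactive means the rest.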 The full list was thinned out, with actives kept by preference.
In this exercise, the only acceptable responses are Yes (active), No (inactive)

A selection of reference data follows.
>  <compound>
COC(=O)c1[nH]c2cccc(C)c2c1NC(=O)CN1CCCc2ccccc21

>  <assignedLabel>
No

$$$$
>  <compound>
Cc1cc2nc(SCCN3CCOCC3)[nH]c2cc1C

>  <assignedLabel>
No

$$$$

Hi, do you know how C=CCn1c(SCCOc2ccc(OC)cc2)nnc1C(NC(=O)c1ccc(OC)cc1)C(C)C (configuration not stated) came out in this test?
No

Hi, do you know how CCCn1c(=O)c2ccccc2n2c(SCC(=O)/C(C#N)=C(\C)N)nnc12 came out in this test?
Yes

---

target: Estrogen receptor beta (Homo sapiens) (UniProt Q92731); experiment: inhibitors of ERβ-SRC1 coactivator interaction, primary screen, biochemical, TR-FRET, ERβ LBD, SRC-1 peptide (AID 633); details: TR-FRET ER-beta LBD / SRC1-Cy5 peptide binding; at 25.6 µM; receptor agonist-loaded with 1 µM estradiol;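 note: 0% = receptor plus peptide wells without compound and 100% = peptide-only wells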
The campaign covered roughly 86,000 compounds. About 1,100 (1.3%) were called active.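 The calls were made as follows: active = compounds whose percent inhibition of the receptor-coactivator binding signal exceeds about 50% in the single-dose screen (limit read from the data); inactive = the rest.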 The sample as a whole holds a higher share of actives than the screen did.
In this exercise, the only acceptable responses are active, inactive

A selection of reference data follows.
>  <compoundStructure>
Oc1c(Cl)cc(Cl)c(Cl)c1Cc1c(O)c(Cl)cc(Cl)c1Cl

>  <assignedLabel>
active

$$$$
>  <compoundStructure>
C=CCn1c(SCC(=O)/C(C#N)=C(\C)N)nc2sc(C)c(C)c2c1=O

>  <assignedLabel>
inactive

$$$$

Alright, here's another compound for you.
Hi, do you know how O=C(Cn1nnc(-c2ccccc2)n1)NCc1ccc2c(c1)OCO2 came out in this test?
inactive

The origin of these recorded values is PubChem BioAssay AID633.
